# credit: patent US20240360208A1

# Tested Target: T1, human CCL2 (MCP1) - wild type (wt) (human, UniProt P13500 24-99)
# T1 construct: Made in-house or bought (R&D Systems 279-MC), depending on the assay; can form dimers; also called wt human CCL2; WT human CCL2
# Measurement Notes: SPR T200, 37 C, antibody captured, 1:1 model
Readout: T1/2 (min)
Answers are plain numbers, in min.

[[record]]
binder = "1A5 (antibody, IgG1, V domains shown, also called CCL2-0009) VH: QEQLVESGGDLVKPEGSLTLTCTASGFSFSTSYWMCWVRQAPGKGLELIACISSSIGVTYYASWAEGRFTISKTSSTTVTLQMTSLTVADTATYFCARTTDDNWNVGFNLWGPGTLVTVSS VL: AYDMTQTPASVEVGVGGTVTIKCQASQSIGNRYLSWYQQKPGQPPKLLIYGTSTLASGVSSRFKGSGSGTQFTLTISGVESADSATYYCQQGATISYLDNAFGGGTEVVVK"
recorded_measurement = 160


Hey, can you go through the list below and give me T1/2 for every item?
1. ABN912 (antibody, IgG1, V domains shown, IgG1 with kappa light chain; also called AB912; CCL2-0003) VH: EVQLVQSGGGLVQPGGSLRLSCAASGFTFSHYWMSWVRQAPGKGLEWLANIEQDGSEKYYVDSVKGRFTISRDNAKNSLYLQMNSLRAEDTAVYFCARDLEGLHGDGYFDLWGRGTLVTVSS VL: AIQLTQSPSSLSASVGDRVILTCRASQGVSSALAWYQQKPGKAPKLLIYDASSLESGVPSRFSGSGSGPDFTLTISSLQPEDFATYFCQQFNSYPLTFGGGTKVEIK
2. murine 11K2 (antibody, V domains shown, also called 11K2m; X-0048) VH: EVQLQQSGAELVKAGASVKLSCPASGLNIKDTYMHWVKQRPEQGLEWIGRIDPANGNTKFDPKFQGKATITADTSSNTAYLQLSSLTSEDTAVYYCARGVFGFFDYWGQGTTLTVSS VL: DIQMTQSSSSFSVSLGDRVTITCKATEDIYNRLAWYQQKPGSAPRLLISGATSLETGVPSRFSGSGSGKDYTLSITSLQTEDVATYYCQQFWSAPYTFGGGTKLEIK

Reply:
1: 33; 2: 19
